# credit: patent US20040053822A1

testSystem: HLA-A*0206 (Homo sapiens, UniProt P04439, D140Y/D185E/D98H/E176V/E277Q/F33Y/G131W/G231S/I119V/I121R/I166T/I218V/L300P/L318F/N151K/N90K/P208A/P217A/Q86G/Q94H/R138H/R169H/T345S)
assayText: Purified HLA class I peptide binding assay, A*0206
experimentalContext: binding affinity, A2 supermotif peptides and analogs
pIC50: −log10 of the molar value.
metricName: pIC50

{"smilesString": "CSCC[C@H](NC(=O)[C@@H](N)CCCCN)C(=O)N[C@@H](C)C(=O)N[C@@H](CCC(=O)O)C(=O)N[C@@H](CC(C)C)C(=O)N[C@H](C(=O)N[C@@H](Cc1c[nH]cn1)C(=O)N[C@@H](Cc1ccccc1)C(=O)N[C@@H](CC(C)C)C(=O)O)C(C)C", "testValue": 7.59}

(a) CSCC[C@H](NC(=O)[C@@H](N)CCCCN)C(=O)N[C@@H](C)C(=O)N[C@@H](CCC(=O)O)C(=O)N[C@@H](CC(C)C)C(=O)N[C@H](C(=O)N[C@@H](Cc1c[nH]cn1)C(=O)N[C@@H](Cc1ccccc1)C(=O)N[C@H](C(=O)O)C(C)C)C(C)C
(b) CC[C@H](C)[C@H](NC(=O)[C@H](CC(C)C)NC(=O)[C@H](C)N)C(=O)N[C@@H](CCC(=O)O)C(=O)N[C@H](C(=O)N[C@@H](CO)C(=O)N[C@@H](Cc1ccc(O)cc1)C(=O)N[C@H](C(=O)N[C@@H](CCCCN)C(=O)N[C@H](C(=O)O)C(C)C)C(C)C)[C@@H](C)O
(c) CC(C)C[C@H](NC(=O)[C@H](CCC(=O)O)NC(=O)[C@H](C)NC(=O)[C@H](CC(C)C)NC(=O)[C@@H](N)CCCCN)C(=O)N[C@H](C(=O)N[C@@H](Cc1c[nH]cn1)C(=O)N[C@@H](Cc1ccccc1)C(=O)N[C@H](C(=O)O)C(C)C)C(C)C
Sort entries by pIC50 from minimum to maximum value. Provide the labels, sequenced as the question asks.
b, a, c
(b: 5.71, a: 7.41, c: 7.82)
